Test system: MALME-3M melanoma
procedure_text: NCI tumour cell line growth inhibition, 48 h; in the data active means GI50 below about 0.43 µM; inactive means the rest
Write down the outcome that applies. Available outcomes: active, inactive

| compound | system_under_test | class |
| --- | --- | --- |
| CCOC(=O)c1ccc2c(c1)[n+](=O)c(C(=O)c1ccc3ccccc3c1)c(C(F)(F)F)n2[O-] | MALME-3M melanoma | inactive |

Can you look up the reported call for "CCCCCCCCCCCC1=NC(C)(C)CN1CCO" for me?
inactive

Can you look up the reported call for "CCOC(=O)c1c[nH]c2c(OCc3ccccc3)c3ccccc3c(O)c2c1=O" for me?
inactive

Can you look up the reported call for "O=C(Nc1ncc(Cc2ccccc2)s1)c1ccc2c(c1)OCCO2" for me?
active

Can you look up the reported call for "O=C(CCCCCCC(=O)N/N=C/c1ccc(N(c2ccccc2)c2ccccc2)cc1)NO" for me?
inactive

Can you look up the reported call for "COc1cc(C(=O)NC2CCN(C)CC2)ccc1Nc1ncc2c(n1)N(C1CCCC1)CC(F)(F)C(=O)N2C" for me?
inactive

Can you look up the reported call for O=C(O)c1cc(N/C=C2\C(=O)c3ccccc3OC2O)ccc1O (configuration not stated) for me?
inactive

Can you look up the reported call for "CCCN(CCC)c1ccc(C=O)cc1" for me?
inactive

Can you look up the reported call for "C#CC[C@@H]1C[C@]2(C)[C@H]3CC[C@@H]4[C@H]5[C@H](C(=C)C)CC[C@]5(C(=O)O)CC[C@@]4(C)[C@]3(C)CC[C@H]2C(C)(C)[C@H]1O" for me?
inactive

----------
Tested on: RPMI-8226 leukemia
procedure_text: NCI tumour cell line growth inhibition, 48 h
assay_metric: TGI

| compound | assay_metric | test_value |
| --- | --- | --- |
| CCCCOP(=O)(OCCCC)/C(C#N)=C/c1ccc(C)o1 | TGI | > 100 µM |
| O=C1NCC2(CCN(Cc3ccccc3)CC2)N1 | TGI | > 100 µM |
| CNc1nnnn1C1OC(CO)C(O)C1O (stereo unspecified) | TGI | > 100 µM |
| O=C(CCCCCCC(=O)N/N=C/c1ccc(N(c2ccccc2)c2ccccc2)cc1)NO | TGI | 14 µM |
| O=C(O)CN1CCNCCN(CC(=O)O)CCNCC1 | TGI | > 100 µM |

Would you kindly look at the next entry?
Which TGI is listed for O=C(O)c1cc(N/C=C2\C(=O)c3ccccc3OC2O)ccc1O (stereo unspecified) ?
7.82 µg/mL

----------
Test system: SK-MEL-2 melanoma
procedure_text: NCI tumour cell line growth inhibition, 48 h
assay_metric: TGI (µM)
Dear colleague, please return just the value in µM, with no unit written.

Consider the reported TGI for these compounds:
| compound | unit_of_measurement | test_value |
| --- | --- | --- |
| O=C(CCCCC(=O)N/N=C\c1ccccc1Cl)N/N=C\c1ccccc1Cl | µM | 33.9 |
| Oc1ccc(-c2c3ccccc3c(-c3ccc(OCCBr)cc3)c3ccccc23)cc1 | µM | 63.5 |
| CCCCCCCCCCCCOC1C(CNC(=O)C2OC3OC(C)(C)OC3C2NC(=O)CN2CCN(c3ccccn3)CC2)OC2OC(C)(C)OC21 (stereo not given) | µM | 3.32 |

Would you kindly look at the next entry?
Form: Entry = "C=CC1(c2ccc3ccccc3c2)OCC(CC)(CC)CO1" | System = SK-MEL-2 melanoma | TGI = ____
34.7

// data source = PubChem BioAssay (NCI)
